tested on: MOLM14; experiment: cell viability relative to vehicle control; higher = less cytotoxic; conditions: 10 µM; SRSF2 genotype: SRSF2 wt/wt;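 also: after 48 h exposure read by CellTiter-Glo luminescence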
Structures can show the parent of a compound that is named as a salt.
Assign labels as follows, please: 1 (yes) for cell viability below 90%; 0 (no) for cell viability equal to or exceeding 90%.

For orientation, consider the following solved cases.
Request: Take the compound NC(=O)c1cccnc1 [Nicotinamide (Vitamin B3)] and say whether its cell viability is less than 90%.
Response: 0 (no)

Request: Take the compound `O=C(c1ccc(Cl)cc1)N(Cc1ccccc1)C1CCCCC1` and say whether its cell viability is less than 90%.
Response: 0 (no)

More entries:
Request: Take the compound COc1cc2c(Oc3ccc4[nH]c(C)cc4c3F)ccnc2cc1OCC1(N)CC1 [Anlotinib (AL3818) dihydrochloride] and say whether its cell viability is less than 90%.
Response: 1 (yes)

Request: Take the compound COC(=O)C1=C(C)NC(C)=C(C(=O)OCCN(C)Cc2ccccc2)C1c1cccc([N+](=O)[O-])c1 (stereo not drawn) [Nicardipine HCl] and say whether its cell viability is less than 90%.
Response: 1 (yes)

Request: Take the compound `CCCc1cc(C)[nH]c(=O)c1CNC(=O)c1cc(-c2ccc(N3CCN(C)CC3)nc2)nc2c1cnn2C(C)C` and say whether its cell viability is less than 90%.
Response: 1 (yes)
